biological target: T-type Ca channel (α1G) (Homo sapiens); construct: expressed in transfected cells; host or cells: BHK (baby hamster kidney) cells; experiment: Effect on T-type Ca channel expressed in BHK cells (whole cell patch clamp), Pharmacological Test Example 1; format: cell-based; conditions: BHK cells expressing T-type Ca channel (α1G), depolarization pulse −20 mV from −80 mV, 5 minutes after application, average value vs vehicle control (100%), read-out: Inhibition (%) of Ca current
Sequence (O43497 whole entry): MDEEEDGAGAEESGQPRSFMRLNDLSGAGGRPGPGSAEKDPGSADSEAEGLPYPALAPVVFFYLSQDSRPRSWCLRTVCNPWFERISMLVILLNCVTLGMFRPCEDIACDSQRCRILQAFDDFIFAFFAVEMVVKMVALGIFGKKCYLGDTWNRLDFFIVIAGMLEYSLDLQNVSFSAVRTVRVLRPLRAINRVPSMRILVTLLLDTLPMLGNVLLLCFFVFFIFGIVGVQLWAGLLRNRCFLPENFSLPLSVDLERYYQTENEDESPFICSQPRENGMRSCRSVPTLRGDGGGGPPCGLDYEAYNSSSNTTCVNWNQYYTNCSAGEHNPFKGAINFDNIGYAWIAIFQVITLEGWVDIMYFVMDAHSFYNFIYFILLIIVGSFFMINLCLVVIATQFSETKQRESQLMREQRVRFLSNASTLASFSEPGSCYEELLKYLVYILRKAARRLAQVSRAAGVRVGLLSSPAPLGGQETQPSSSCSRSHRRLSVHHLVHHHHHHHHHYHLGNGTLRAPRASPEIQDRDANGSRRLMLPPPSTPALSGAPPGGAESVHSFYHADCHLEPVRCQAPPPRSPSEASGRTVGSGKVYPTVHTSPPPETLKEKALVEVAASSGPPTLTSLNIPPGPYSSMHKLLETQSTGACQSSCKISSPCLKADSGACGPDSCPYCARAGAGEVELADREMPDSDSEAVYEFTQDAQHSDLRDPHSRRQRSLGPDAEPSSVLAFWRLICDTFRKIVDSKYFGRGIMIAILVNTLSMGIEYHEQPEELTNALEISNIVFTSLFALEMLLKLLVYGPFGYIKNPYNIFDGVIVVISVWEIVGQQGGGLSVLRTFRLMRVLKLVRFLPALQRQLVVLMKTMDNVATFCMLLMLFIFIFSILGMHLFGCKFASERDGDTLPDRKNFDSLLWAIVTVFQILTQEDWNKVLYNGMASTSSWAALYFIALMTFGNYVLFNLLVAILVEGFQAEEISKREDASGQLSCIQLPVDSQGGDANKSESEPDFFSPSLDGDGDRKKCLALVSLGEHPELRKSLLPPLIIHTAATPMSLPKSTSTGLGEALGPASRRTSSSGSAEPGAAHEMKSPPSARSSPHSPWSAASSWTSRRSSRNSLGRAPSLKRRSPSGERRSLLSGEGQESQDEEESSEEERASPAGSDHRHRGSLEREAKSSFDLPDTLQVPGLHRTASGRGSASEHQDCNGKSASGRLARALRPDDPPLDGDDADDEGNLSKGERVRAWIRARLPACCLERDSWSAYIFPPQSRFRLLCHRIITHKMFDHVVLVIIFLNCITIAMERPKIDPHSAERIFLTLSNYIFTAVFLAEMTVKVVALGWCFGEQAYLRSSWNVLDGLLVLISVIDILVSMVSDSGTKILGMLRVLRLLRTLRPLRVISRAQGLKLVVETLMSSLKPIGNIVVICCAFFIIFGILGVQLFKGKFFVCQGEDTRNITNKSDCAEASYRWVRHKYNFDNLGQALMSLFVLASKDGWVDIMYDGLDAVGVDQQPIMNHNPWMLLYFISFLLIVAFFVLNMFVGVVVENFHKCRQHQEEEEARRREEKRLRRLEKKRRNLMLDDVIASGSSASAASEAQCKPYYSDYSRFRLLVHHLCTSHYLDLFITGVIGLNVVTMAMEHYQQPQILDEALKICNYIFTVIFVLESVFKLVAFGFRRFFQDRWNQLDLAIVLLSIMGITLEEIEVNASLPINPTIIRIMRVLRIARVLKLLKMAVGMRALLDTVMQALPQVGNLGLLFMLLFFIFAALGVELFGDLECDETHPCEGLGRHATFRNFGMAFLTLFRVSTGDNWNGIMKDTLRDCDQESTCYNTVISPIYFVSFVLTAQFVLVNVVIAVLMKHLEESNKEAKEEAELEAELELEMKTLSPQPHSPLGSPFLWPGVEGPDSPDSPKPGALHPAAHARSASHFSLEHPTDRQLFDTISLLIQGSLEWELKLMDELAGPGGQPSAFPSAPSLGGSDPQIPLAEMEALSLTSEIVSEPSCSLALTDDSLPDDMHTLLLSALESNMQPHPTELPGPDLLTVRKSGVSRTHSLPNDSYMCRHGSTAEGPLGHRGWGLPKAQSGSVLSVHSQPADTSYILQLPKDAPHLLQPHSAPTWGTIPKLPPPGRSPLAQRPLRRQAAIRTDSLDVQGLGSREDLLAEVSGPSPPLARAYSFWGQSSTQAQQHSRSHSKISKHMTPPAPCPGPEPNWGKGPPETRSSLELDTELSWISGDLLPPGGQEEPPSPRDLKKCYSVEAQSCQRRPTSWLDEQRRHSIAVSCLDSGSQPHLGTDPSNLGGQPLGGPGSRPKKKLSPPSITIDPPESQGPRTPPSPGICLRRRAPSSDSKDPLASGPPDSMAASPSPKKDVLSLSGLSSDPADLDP
measurement-label: inhibition at 10 µM (%)

1: Cc1nc(C)c(P2(=O)OCC(C)(C)CO2)c(-c2cccc([N+](=O)[O-])c2)c1C(=O)OCCN1CCN(C(c2ccccc2)c2ccccc2)CC1 [Compound (6)]
2: Cc1nc(C)c(P2(=O)OCC(C)(C)CO2)c(-c2cccc([N+](=O)[O-])c2)c1C(=O)OCCN(Cc1ccccc1)c1ccccc1 [Compound (4)]
Q: Would you kindly point out which of 1 and 2 has the smaller inhibition at 10 µM figure? Use the label to indicate which entry you chose.
A: 2
(2: 23.9%, 1: 43.6%)

I: COC(=O)C1=C(C)N(C)C(C)=C(C(=O)OC2CCCN(Cc3ccccc3)C2)C1c1cccc([N+](=O)[O-])c1 (centres unmarked) [Compound (8)]
II: Cc1nc(C)c(P2(=O)OCC(C)(C)CO2)c(-c2cccc([N+](=O)[O-])c2)c1C(=O)OCCNc1ccccc1 [Compound (5)]
Q: Would you kindly point out which of I and II has the smaller inhibition at 10 µM figure? Use the label to indicate which entry you chose.
A: I
